Source: PubChem BioAssay (NCI)

- Assay Text: NCI Yeast Anticancer Drug Screen. Data for the mlh1 rad18 strain (AID 175)
- Condition Info: S. cerevisiae mlh1 rad18 strain growth inhibition, hits give high values; at 50.0 µM unless noted
The panel holds about 79,000 compounds, 15% with a hit somewhere; the sample as a whole holds those more often.
Listed here are compounds together with their documented growth inhibition.
Give the number; % is assumed, so skip it.

The following compounds have reported results that may help.
Compound	Number
COc1ccc(C2S/C(=C\c3ccc(OC)cc3OC)C(=O)N2NC(=O)Cc2ccccc2)cc1 (stereo unspecified)	5.05
O=c1oc(-c2ccc([N+](=O)[O-])cc2Cl)nc2ccccc12	29.9
Cc1ccc(S(=O)(=O)OCCN(CCOS(=O)(=O)c2ccc(C)cc2)c2cccc([N+](=O)[O-])c2)cc1	21.4
CS1(C)=Nc2c([N+](=O)[O-])cc([N+](=O)[O-])cc2S(=O)(=O)N=1	6.55
CC(=O)OC1CCC(=O)C2C(C(=O)O)CCCC12 (stereo unspecified)	0.25

Could you share which growth inhibition value was measured for COC(=O)C(CCSC)NC(=O)C1CSC(C)(C)N1C=O (stereo unspecified) ? -1.85

Could you share which growth inhibition value was measured for CCCCCCC(CCN(C)C)(C(C)=O)c1ccccc1 (stereo unspecified) ? 11.1

Could you share which growth inhibition value was measured for Cc1cc(C(=O)C(C#N)=Nc2ccc(N(C)C)cc2)c(CN2C(=O)c3ccccc3C2=O)c(=O)n1C ? 5.95

Could you share which growth inhibition value was measured for CC(C)CCO/N=C(\N)N=C(N)N ? -1.9
